# assayed.system: UniProtKB P31391
# Sequence (P31391 whole entry): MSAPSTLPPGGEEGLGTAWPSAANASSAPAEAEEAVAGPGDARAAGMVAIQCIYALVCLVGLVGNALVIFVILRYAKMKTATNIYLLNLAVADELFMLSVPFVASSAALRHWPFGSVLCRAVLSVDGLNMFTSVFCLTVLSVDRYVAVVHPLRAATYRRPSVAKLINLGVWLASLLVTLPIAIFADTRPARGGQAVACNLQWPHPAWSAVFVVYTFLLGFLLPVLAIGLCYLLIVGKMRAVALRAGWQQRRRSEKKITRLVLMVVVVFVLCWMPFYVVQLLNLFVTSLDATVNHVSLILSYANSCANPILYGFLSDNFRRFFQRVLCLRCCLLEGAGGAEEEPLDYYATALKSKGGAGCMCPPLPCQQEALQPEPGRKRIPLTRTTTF
# procedure.details: Evaluation of agonist activities using human SSTR4-stably expressing cells (aequorin luminescence)
# Format: cell-based
# Design: expressed in transfected cells; host or cells: HEK293
# assay.conditions: luminescence signal; 1 μmol/L somatostatin taken as 100%
// reported EC50 for each item listed

Reference set (2 entries):
Task item: Return value of EC50 for input COC[C@@H]1CC[C@H](C(=O)NC(C)(C)c2cccc3ccccc23)CN1C (relative stereo) , no commentary.
Reply: > 0.1 µM

Task item: Return value of EC50 for input CC(C)Cc1cc(Cl)ccc1C(C)(C)NC(=O)[C@H]1CCCN(C)C1 , no commentary.
Reply: > 0.1 µM

Kindly review the next compound as well.
Task item: Return value of EC50 for input CN1CCC[C@H](C(=O)NC(C)(C)c2ccc(S(C)(=O)=O)cc2)C1 , no commentary.
Reply: > 0.1 µM

====

# assayed.system: UniProt P31391
# procedure.details: Evaluation of agonist activities using human SSTR4-stably expressing cells (aequorin luminescence)
# assay.conditions: luminescence signal; 1 μmol/L somatostatin taken as 100%
pEC50: −log10 of the molar value.
// reported pEC50 for each item listed

Task item: Return value of pEC50 for input CN1CC[C@@H](C(=O)NC(C)(C)c2ccccc2Cl)C1 , no commentary.
Reply: < 7.00

Task item: Return value of pEC50 for input COc1cccc(C(C)(C)NC(=O)[C@H]2CCCN(C)C2)c1 , no commentary.
Reply: < 7.00

Task item: Return value of pEC50 for input CN1CCC[C@H](C(=O)NC(C)(C)c2cccnc2)C1 , no commentary.
Reply: < 7.00

Task item: Return value of pEC50 for input CN1CCCC(C(=O)NC(C)(C)c2cccc(Cl)c2Cl)C1c1ccccc1 (centres unmarked) , no commentary.
Reply: < 7.00

Kindly review the next compound as well.
Task item: Return value of pEC50 for input CN1CCC[C@H](C(=O)NC(C)(C)c2ccc(F)cc2)C1 , no commentary.
Reply: < 7.00
